study_target: Beta-secretase 1 (Homo sapiens) (UniProt P56817)
Sequence (P56817 whole entry): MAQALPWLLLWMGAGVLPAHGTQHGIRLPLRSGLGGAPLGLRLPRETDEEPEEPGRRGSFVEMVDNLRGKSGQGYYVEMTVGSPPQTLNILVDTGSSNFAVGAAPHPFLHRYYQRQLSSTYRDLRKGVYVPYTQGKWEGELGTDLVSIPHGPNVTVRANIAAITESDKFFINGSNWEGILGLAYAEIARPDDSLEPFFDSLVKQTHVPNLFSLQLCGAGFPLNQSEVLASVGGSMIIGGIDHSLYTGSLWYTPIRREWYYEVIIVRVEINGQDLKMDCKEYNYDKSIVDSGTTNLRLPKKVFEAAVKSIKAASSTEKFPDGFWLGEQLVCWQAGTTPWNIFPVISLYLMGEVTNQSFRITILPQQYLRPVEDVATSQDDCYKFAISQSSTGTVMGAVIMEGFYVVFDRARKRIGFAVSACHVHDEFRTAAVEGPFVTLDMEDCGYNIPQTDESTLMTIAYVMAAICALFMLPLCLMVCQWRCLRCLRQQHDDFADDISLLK
experiment_notes: Inhibition of human recombinant BACE-1 using M-2420 as substrate at 3 uM incubated for 1 hr prior to substrate addition measured after 15 mins by FRET assay relative to control
measurement_type: inhibition (%)
Give bare numbers, in %.

Study these solved cases before continuing.
Challenge: So what's the measured inhibition for this one? Cc1ccc(C(=O)c2ccc(O)c(F)c2)cc1
Response given: 35.4

Challenge: Give the measured inhibition of CN(Cc1ccc(C(=O)c2ccc(O)c(F)c2)cc1)C1CCCCC1 .
Response given: 36.2

Challenge: Using the record for O=C(c1ccc(CN2CCC(CCO)CC2)cc1)c1ccc(O)c(F)c1 , report its inhibition.
Response given: 58.7

List reported inhibition for each of these molecules:
1. O=C(c1ccc(CN2CCC(O)CC2)cc1)c1ccc(O)c(F)c1
2. CN(Cc1ccccc1)Cc1ccc(C(=O)c2ccc(O)c(F)c2)cc1
3. CN(C)CCN(C)Cc1ccc(C(=O)c2ccc(O)c(F)c2)cc1
4. CN(CCO)Cc1ccc(C(=O)c2ccc(O)c(F)c2)cc1

Response given:
1: 32.8; 2: 40.8; 3: 13.5; 4: 46.7
